Data origin: patent US20110183978A1

- System: Fusarium graminearum
- ASSAY_PROCEDURE: microbe, parasite or virus in culture
- Type: cell-based
- CONDITION_CONTEXT: 72 h, read-out: % Inhibition des Pilzwachstums bei 50 μM

# COMPOUND, TEST_SYSTEM, inhibition at 50 µM
rows = [
    ("CC(C)Cn1cc(-c2ccncn2)c(-c2cccc(Cl)c2)n1 [Compound 5]", "Fusarium graminearum", "97%"),
    ("C=CCNc1nccc(-c2cn(CC(C)C)nc2-c2ccc(F)cc2)n1 [Compound 150]", "Fusarium graminearum", "97%"),
    ("CCn1cc(-c2ccnc(NC(=O)COC)c2)c(-c2ccc(F)cc2)n1 [Compound 203]", "Fusarium graminearum", "100%"),
    ("CCC(=O)Nc1cc(-c2cn(Cc3ccccc3F)nc2-c2ccc(F)cc2)ccn1 [Compound 213]", "Fusarium graminearum", "0%"),
    ("CCC(=O)Nc1cc(-c2cn(CCCl)nc2-c2ccc(F)cc2)ccn1 [Compound 219]", "Fusarium graminearum", "97%"),
    ("CCC(=O)Nc1cc(-c2cn(CC(C)C)nc2-c2ccc(F)c(C#N)c2)ccn1 [Compound 230]", "Fusarium graminearum", "0%"),
    ("CCC(C)n1cc(-c2ccnc(NC(=O)C(C)C)c2)c(-c2ccc(F)cc2)n1 (stereo not shown) [Compound 157]", "Fusarium graminearum", "100%"),
    ("CC(C)Cn1cc(-c2ccnc(NC(=O)C(C)C)c2)c(-c2ccc(F)cc2)n1 [Compound 87]", "Fusarium graminearum", "97%"),
    ("CC(C)C(=O)Nc1cc(-c2c(-c3ccc(F)cc3O)nn(C)c2OC(F)F)ccn1 [Compound 257]", "Fusarium graminearum", "0%"),
    ("CC(C)n1cc(-c2ccnc(NC(=O)c3cccs3)c2)c(-c2ccc(F)cc2)n1 [Compound 206]", "Fusarium graminearum", "75%"),
    ("CCOCCn1cc(-c2ccnc(NC(=O)C(C)C)c2)c(-c2ccc(F)cc2)n1 [Compound 328]", "Fusarium graminearum", "101%"),
    ("CCOC(=O)Nc1cc(-c2cn(CC(C)C)nc2-c2ccc(F)cc2)ccn1 [Compound 267]", "Fusarium graminearum", "59%"),
    ("O=C(Nc1cc(-c2cn(CC3CC3(Cl)Cl)nc2-c2ccc(F)cc2)ccn1)C1CC1 (stereo not shown) [Compound 260]", "Fusarium graminearum", "5%"),
    ("CC(C)Cn1cc(-c2ccnc(NC(=O)C3CC3)c2)c(-c2ccc(F)cc2)n1 [Compound 165]", "Fusarium graminearum", "64%"),
    ("CCOC(=O)Nc1cc(-c2cn(C(C)CC)nc2-c2ccc(F)cc2)ccn1 (stereo not shown) [Compound 268]", "Fusarium graminearum", "32%"),
    ("CCC(=O)Nc1cc(-c2cn(C(C)C)nc2-c2ccc(F)cc2)ccn1 [Compound 85]", "Fusarium graminearum", "100%"),
    ("CC(C)n1cc(-c2ccnc(NC(=O)C3CC3)c2)c(-c2ccc(F)cc2)n1 [Compound 86]", "Fusarium graminearum", "94%"),
    ("CC(C)Cn1cc(-c2ccncc2)c(-c2ccc(F)c(C#N)c2)n1 [Compound 154]", "Fusarium graminearum", "0%"),
    ("COCC(=O)Nc1cc(-c2cn(Cc3ccccc3F)nc2-c2ccc(F)cc2)ccn1 [Compound 247]", "Fusarium graminearum", "96%"),
    ("N#CCCn1cc(-c2ccncc2)c(-c2ccc(F)cc2)n1 [Compound 146]", "Fusarium graminearum", "97%"),
    ("CCOC(=O)Nc1cc(-c2cn(CC3CC3(Cl)Cl)nc2-c2ccc(F)cc2)ccn1 (stereo not shown) [Compound 264]", "Fusarium graminearum", "17%"),
    ("CCC(C)n1cc(-c2ccnc(NC(=O)COC)c2)c(-c2ccc(F)cc2)n1 (stereo not shown) [Compound 162]", "Fusarium graminearum", "99%"),
    ("CC(C)Cn1cc(-c2ccnc(NC(=O)C(C)C)c2)c(-c2ccc(F)c(C#N)c2)n1 [Compound 255]", "Fusarium graminearum", "0%"),
    ("CCOC(=O)Nc1cc(-c2cn(CC(C)C)nc2-c2ccc(F)c(C#N)c2)ccn1 [Compound 265]", "Fusarium graminearum", "9%"),
    ("CCC(=O)Nc1cc(-c2cn(CC)nc2-c2ccc(F)cc2)ccn1 [Compound 198]", "Fusarium graminearum", "100%"),
    ("COCC(=O)Nc1cc(-c2cn(CC3CC3)nc2-c2ccc(F)cc2)ccn1 [Compound 223]", "Fusarium graminearum", "99%"),
    ("COCC(=O)Nc1cc(-c2cn(C(C)C)nc2-c2ccc(F)cc2)ccn1 [Compound 40]", "Fusarium graminearum", "100%"),
    ("CCOCCn1cc(-c2ccnc(NC(=O)COC)c2)c(-c2ccc(F)cc2)n1 [Compound 327]", "Fusarium graminearum", "105%"),
    ("CCC(=O)Nc1cc(-c2cn(CCOC)nc2-c2ccc(F)cc2)ccn1 [Compound 153]", "Fusarium graminearum", "56%"),
    ("CC(C)C(=O)Nc1cc(-c2cn(CCCl)nc2-c2ccc(F)cc2)ccn1 [Compound 222]", "Fusarium graminearum", "99%"),
    ("CCC(=O)Nc1cc(-c2cn(CC3CC3)nc2-c2ccc(F)cc2)ccn1 [Compound 214]", "Fusarium graminearum", "100%"),
    ("CC(C)On1cc(-c2ccncc2)c(-c2ccc(F)cc2)n1 [Compound 227]", "Fusarium graminearum", "100%"),
    ("CC(C)n1cc(-c2ccnc(NC(=O)C(O)CO)c2)c(-c2ccc(F)cc2)n1 (stereo not shown) [Compound 210]", "Fusarium graminearum", "85%"),
    ("C#CCNc1nccc(-c2cn(CC(C)C)nc2-c2ccc(F)cc2)n1 [Compound 183]", "Fusarium graminearum", "65%"),
    ("COCC(=O)Nc1cc(-c2cn(CC(C)C)nc2-c2ccc(F)cc2)ccn1 [Compound 166]", "Fusarium graminearum", "84%"),
    ("O=C(Nc1cc(-c2cn(CC3CC3)nc2-c2ccc(F)cc2)ccn1)C1CC1 [Compound 224]", "Fusarium graminearum", "100%"),
    ("CC(C)Cn1cc(-c2ccnc(NC(=O)CC3CC3)c2)c(-c2ccc(F)c(C#N)c2)n1 [Compound 252]", "Fusarium graminearum", "0%"),
]
